tested on: TAB165; test: qHTS profiling for inhibitors of Plasmodium falciparum proliferation (AID 504749); also: nearly all actives have a fitted effect of over 60% in size; details: P. falciparum in erythrocytes, SYBR Green DNA, 72 h; series mostly up to 28.7 µM
Inconclusive results are not listed. Activity calls are given as the source filed them. Calls follow the shape of the dose curve; as a rule, active = well fitted inhibition curve with a large enough effect; inconclusive = small, poorly fitted or top-dose-only effect; inactive = flat fitted curve, though single readings scatter.
Write down one outcome, taken from active, inactive

What outcome does the record of this test show for CCCCC(=O)OCC(=O)[C@]1(O)Cc2c(O)c3c(c(O)c2[C@H](OC2CC(NC(=O)C(F)(F)F)C(O)C(C)O2)C1)C(=O)c1c(OC)cccc1C3=O (some centres undefined) ?
active

Can you check CC1OC(OCC2OC(Oc3c(-c4ccc(OCCO)c(OCCO)c4)oc4cc(OCCO)cc(O)c4c3=O)C(O)C(O)C2O)[C@@H](O)C(O)C1O (some centres undefined) next?
inactive

Can you check CCN(CC)CC(=O)Nc1c(C)cc(C)cc1C next?
inactive

Can you check CC(=O)OC1C([N+]2(C)CCCCC2)C[C@H]2C3CC[C@H]4C[C@H](OC(C)=O)C([N+]5(C)CCCCC5)CC4(C)C3CCC12C (some centres undefined) next?
inactive

Can you check CC1(Cn2ccnn2)[C@H](C(=O)O)N2C(=O)C[C@H]2S1(=O)=O (some centres undefined) next?
inactive

Can you check C=C[C@H]1CN2CCC1C[C@H]2[C@H](O)c1ccnc2ccc(OC)cc12 (some centres undefined) next?
active

Can you check C=C(NCc1ccccc1)c1ccccc1O next?
inactive

Can you check CC(C)C(=O)OCC(=O)[C@@]12OC(C3CCCCC3)O[C@@H]1CC1C3CCC4=CC(=O)C=C[C@]4(C)C3[C@@H](O)C[C@@]12C (some centres undefined) next?
active

Can you check C=CC1CN2CCC1CC2[C@@H](O)c1ccnc2ccc(OC)cc12 (some centres undefined) next?
active
